# SYSTEM_NAME: Toll-like receptor 4 (Homo sapiens) + Myeloid differentiation primary response protein MyD88 (Homo sapiens) (UniProt O00206+Q99836)
# Sequence (O00206 whole entry, looked up): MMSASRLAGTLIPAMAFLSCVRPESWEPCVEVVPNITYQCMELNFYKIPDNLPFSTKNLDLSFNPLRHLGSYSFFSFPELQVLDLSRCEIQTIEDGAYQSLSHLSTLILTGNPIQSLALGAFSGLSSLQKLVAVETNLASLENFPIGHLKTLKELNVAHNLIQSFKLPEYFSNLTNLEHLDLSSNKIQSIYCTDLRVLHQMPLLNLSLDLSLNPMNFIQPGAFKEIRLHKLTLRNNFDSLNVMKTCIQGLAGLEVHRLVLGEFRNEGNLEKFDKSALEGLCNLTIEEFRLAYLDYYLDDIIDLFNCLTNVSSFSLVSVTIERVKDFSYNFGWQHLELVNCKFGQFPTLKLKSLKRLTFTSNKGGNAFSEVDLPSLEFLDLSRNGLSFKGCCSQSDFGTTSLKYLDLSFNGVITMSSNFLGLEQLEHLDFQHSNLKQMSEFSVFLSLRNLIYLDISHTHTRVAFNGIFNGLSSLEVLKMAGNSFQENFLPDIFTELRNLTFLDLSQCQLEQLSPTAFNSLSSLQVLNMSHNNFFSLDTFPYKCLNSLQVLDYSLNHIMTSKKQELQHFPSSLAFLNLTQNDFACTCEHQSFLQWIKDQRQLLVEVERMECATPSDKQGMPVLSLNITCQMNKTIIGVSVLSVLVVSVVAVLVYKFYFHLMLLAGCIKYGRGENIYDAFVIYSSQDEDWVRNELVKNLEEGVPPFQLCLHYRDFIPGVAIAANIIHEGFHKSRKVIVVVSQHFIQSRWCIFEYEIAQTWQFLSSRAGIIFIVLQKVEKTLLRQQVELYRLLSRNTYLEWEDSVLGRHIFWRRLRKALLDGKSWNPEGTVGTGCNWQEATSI
# Sequence (Q99836 whole entry, looked up): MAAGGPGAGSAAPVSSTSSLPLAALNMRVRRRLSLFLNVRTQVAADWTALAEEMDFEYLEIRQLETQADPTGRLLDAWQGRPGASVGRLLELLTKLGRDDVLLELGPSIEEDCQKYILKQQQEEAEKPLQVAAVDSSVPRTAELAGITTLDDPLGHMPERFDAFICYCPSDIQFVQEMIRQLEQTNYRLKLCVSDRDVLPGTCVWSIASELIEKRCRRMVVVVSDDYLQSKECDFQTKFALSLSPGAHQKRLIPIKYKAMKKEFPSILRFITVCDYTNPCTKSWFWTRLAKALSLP
# ASSAY_TEXT: inhibitors of TLR4-MyD88 association in cells, primary screen, cell-based, HeLa CL3-4, BLA complementation, FRET ratio (AID 861)
# ASSAY_CONDITIONS: HeLa CL3-4 TLR4/MyD88 BLA complementation, at 8.4 µM
The campaign covered roughly 200,000 compounds. About 360 (0.18%) were called active. Rule as the data show it: active = inhibition above about 25%; inactive = the rest. This excerpt belongs to a sample that is enriched for actives.
# output must be one of active, inactive

Task: Any idea what this test logged for Fc1cccc(F)c1CN1CCN(Cc2c(F)cccc2F)CC1 ?
Result: inactive

Task: Any idea what this test logged for COc1ccc(CN2CCN(c3ccccc3F)CC2)c(OC)c1 ?
Result: active

Task: Any idea what this test logged for CC(C)c1ccc(O)c(CN2CCN(c3ccccc3)CC2)c1 ?
Result: inactive

Task: Any idea what this test logged for CCOc1ccc(C2SCC(=O)Nc3c2c(C)nn3C2CCOC(C)(C)C2)cc1 (centres undefined) ?
Result: inactive
